- System: MDA-MB-231
- method_description: NCI tumour cell line growth inhibition, 48 h
Activity calls are given as the source filed them. No stated cut-off is given here; in the data, active = GI50 up to about 1.1 µM and inactive = higher.
Answer with one of the outcomes TRUE (active), FALSE (inactive)

What outcome does the record of this test show for O=C(O)c1cc(/N=N/c2ccc([N+](=O)[O-])cc2)ccc1O ?
FALSE

What outcome does the record of this test show for CC(C)N(C(=O)C12C3(C(=O)OC(C)(C)C)C4C5(C#N)C3C1(C(=O)OC(C)(C)C)C5C42C(=O)OC(C)(C)C)C(C)C (centres undefined) ?
FALSE

What outcome does the record of this test show for CC1C2CC(C(C3C(=O)C4CC3C(C)(C)C4C)C2=O)C1(C)C (centres undefined) ?
FALSE

What outcome does the record of this test show for C/C(=N\Nc1nc2ccccc2s1)c1ncccn1 ?
TRUE

What outcome does the record of this test show for N#CC(C#N)=C1C(C#N)=C(N)NC12OCCO2 ?
FALSE

What outcome does the record of this test show for CCCN1C(=O)CCC2=C1CCc1c2ccc(Cl)c1Cl ?
FALSE

What outcome does the record of this test show for C=C1N(C)c2ccc(S(=O)(=O)c3ccc4c(c3)C(C)(C)C(=C)N4C)cc2C1(C)C ?
FALSE

What outcome does the record of this test show for O=C(c1c(F)c(F)c(F)c(F)c1F)n1c(=S)n(C(=O)c2c(F)c(F)c(F)c(F)c2F)c2ccccc21 ?
FALSE

What outcome does the record of this test show for CCOC(=N)n1c(=O)n(C2=NCCN2)c2ccccc21 ?
FALSE

What outcome does the record of this test show for CCC(C)C1NC(=O)C(NC(=O)C(CC(C)C)N(C)C(=O)[C@@H]2CC(O)CN2C(=O)[C@H](C)O)C(C)OC(=O)[C@H](Cc2ccc(OC)cc2)N(C)C(=O)[C@@H]2CCCN2C(=O)[C@H](CC(C)C)NC(=O)C(C)C(=O)[C@H](C(C)C)OC(=O)CC1O (some centres undefined) ?
TRUE

What outcome does the record of this test show for COC1/C=C(C)/C=C/C(C)/C=C/C(=O)OC(/C(C)=C/C=C(\C)CNC(=O)[C@H](CO)NC=O)C(C)/C=C/C=C/C(OC)CC/C=C(C)/C=C/C1 (some centres undefined) ?
TRUE

What outcome does the record of this test show for CC(=O)OCC1OC(Nc2ccc3nc(C)n(-c4ccccc4)c(=O)c3c2)C(OC(C)=O)C(OC(C)=O)C1OC(C)=O (centres undefined) ?
FALSE

What outcome does the record of this test show for CCN(CC)CCCNc1[nH]c2ccccc2c2nc3ccc(OC)cc3c1-2 ?
FALSE

What outcome does the record of this test show for CCC1(O)CN(CCOC)[C@H]2C[C@@H]1C(=O)c1[nH]c3ccccc3c12 (some centres undefined) ?
FALSE

What outcome does the record of this test show for Cc1cc2[n-][n+]3ncc(-c4ccccc4)n3c2cc1[N+](=O)[O-] ?
FALSE

What outcome does the record of this test show for CC(=O)N(C)SCC(NC(=O)C(Cc1ccccc1)NC(=O)OCc1ccccc1)C(=O)NC(Cc1ccccc1)C(=O)NC(Cc1cn(C=O)c2ccccc12)C(=O)NC(CCCCNC(=O)OCc1ccccc1)C(=O)NC(C(=O)NC(CSN(C)C(C)=O)C(=O)NO)C(C)OCc1ccccc1 (centres undefined) ?
FALSE

What outcome does the record of this test show for CC(C)C1=CC2=C(C(=O)C1=O)C13CCCC(C)(C)C1CC2OC3=O (centres undefined) ?
FALSE

What outcome does the record of this test show for CCOC(=O)CCc1c(C(=O)OCC)[nH]c(/C=C2/NC(=O)C(C)=C2CC)c1C ?
FALSE

What outcome does the record of this test show for NNC(=S)N/N=C(\C(=O)Nc1cccc(O)c1)C1C(=O)NC(=S)NC1=O ?
FALSE
